Cited source for all entries: patent US20100063026A1

Listing of entries alongside the reported log10 IC90.
tested on: M. smegmatis ATCC607; assay: In-vitro anti-bacterial activity against strain M. smegmatis ATCC607; settings: Mycolicibacterium smegmatis, ATCC607, 48 h, read-out: IC90 MSM 1 ATCC607, 90% inhibitory concentration for bacterial growth, 37° C., Alamar Blue fluorescence
For clarity, the numbers are log10 values of IC90 expressed in µg/mL.

q: Can you share its log10 IC90? I mean this compound: COc1nc2ccc(Br)cc2cc1C(c1ccccc1)C(O)(CCCCNC1CC2CCC1C2)c1ccc2ccccc2c1 (single isomer, unassigned)
a: 0.32

q: Can you share its log10 IC90? I mean this compound: COc1nc2ccccc2cc1C(c1ccccc1)C(O)(CCCCN1CC2CC1CN2)c1ccc2ccccc2c1 (single isomer, unassigned)
a: 0.26

q: Can you share its log10 IC90? I mean this compound: COc1ccc(N2CCN(CCCCC(O)(c3ccc4ccccc4c3)C(c3ccccc3)c3cc4cc(Br)ccc4nc3OC)CC2)cc1 (single isomer, unassigned)
a: 1.26

q: Can you share its log10 IC90? I mean this compound: COc1nc2ccc(Br)cc2cc1C(c1ccccc1)C(O)(CCCCN1CC2CC1CN2CC(C)C)c1ccc2ccccc2c1 (stereo not drawn) [Compound 52]
a: 0.34

q: Can you share its log10 IC90? I mean this compound: CN1CCCN(CCCCC(O)(c2ccc3ccccc3c2)C(c2ccccc2)c2cc3cc(Br)ccc3[nH]c2=O)CC1 (single isomer, unassigned)
a: 0.30

q: Can you share its log10 IC90? I mean this compound: COc1nc2ccc(Br)cc2cc1C(c1ccccc1)C(O)(CCCCN1CC2CC1CN2Cc1ccccc1)c1ccc2ccccc2c1 (stereo not drawn)
a: -0.22

q: Can you share its log10 IC90? I mean this compound: COc1nc2ccc(Br)cc2cc1C(c1ccccc1)C(O)(CCCCN1CC2CC1CN2CC(C)C)c1ccc2ccccc2c1 (single isomer, unassigned) [Compound 53]
a: 0.20

q: Can you share its log10 IC90? I mean this compound: COc1nc2ccc(Br)cc2cc1C(c1ccccc1)C(O)(CCCCN1CC2CC1CN2C)c1ccc2ccccc2c1 (single isomer, unassigned)
a: 0.32

q: Can you share its log10 IC90? I mean this compound: COc1nc2ccc(Br)cc2cc1C(c1ccccc1)C(O)(CCCCN1CCCN(C)CC1)c1ccc2ccccc2c1 (single isomer, unassigned)
a: 0.32

q: Can you share its log10 IC90? I mean this compound: COc1nc2ccc(Br)cc2cc1C(c1ccccc1)C(O)(CCCCN1CC2CC1CN2Cc1ccccc1)c1ccccc1 (single isomer, unassigned)
a: 0.38

q: Can you share its log10 IC90? I mean this compound: COc1nc2ccc(Br)cc2cc1C(c1ccccc1)C(O)(CCCCCN1CCCN(C)CC1)c1ccc2ccccc2c1 (single isomer, unassigned)
a: 0.32

q: Can you share its log10 IC90? I mean this compound: COc1nc2ccc(Br)cc2cc1C(c1ccccc1)C(O)(CCCCN1CC2CC1CN2CCc1ccccc1)c1ccc2ccccc2c1 (single isomer, unassigned)
a: 0.36

----------
system: M. smegmatis ATCC607; assay: In-vitro anti-bacterial activity against strain M. smegmatis ATCC607; settings: Mycolicibacterium smegmatis, ATCC607, 48 h, read-out: IC90 MSM 1 ATCC607, 90% inhibitory concentration for bacterial growth, 37° C., Alamar Blue fluorescence
Test readout: IC90 (µg/mL)
Answer with a number only, understood to be in µg/mL.

// solved cases for IC90 follow
[
  {
    "Compound": "COc1nc2ccc(Br)cc2cc1C(c1ccccc1)C(O)(CCCCc1ccccc1)CCCCN1CC2CC1CN2Cc1ccccc1 (single isomer, unassigned)",
    "IC90 (µg/mL)": 0.6
  },
  {
    "Compound": "COc1nc2ccc(Br)cc2cc1C(c1ccccc1)C(O)(CCCCN1CCCNCC1)c1ccccc1 (single isomer, unassigned)",
    "IC90 (µg/mL)": 1.9
  }
]

// next entry
q: Can you share its IC90? I mean this compound: COc1nc2ccc(Br)cc2cc1C(c1ccccc1)C(O)(CCCCN(C)C1CCN(C)CC1)c1ccccc1 (single isomer, unassigned)
a: 2
